Target system: T1, NativeRPtag(large)_with_Tags_and_Cys (Thermoanaerobacter tengcongensis)
T1 construct: Unlabeled in anisotropy assays; coupled through the engineered N-terminal Cys to SulfoLink agarose or maleimide plates in column, pull-down and ELISA assays
T1 chain: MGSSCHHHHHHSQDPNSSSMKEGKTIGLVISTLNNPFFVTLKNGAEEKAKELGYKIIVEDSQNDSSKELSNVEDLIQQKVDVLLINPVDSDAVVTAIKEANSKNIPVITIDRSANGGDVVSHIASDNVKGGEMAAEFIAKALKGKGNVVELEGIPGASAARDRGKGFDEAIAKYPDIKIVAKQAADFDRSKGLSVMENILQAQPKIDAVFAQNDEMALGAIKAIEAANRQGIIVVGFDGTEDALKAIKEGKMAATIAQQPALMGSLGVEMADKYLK
Assay info: fluorescence anisotropy
No end group written: not given here. *: point of attachment. RhodamineB = CCN(CC)c1ccc2c(-c3ccccc3C(=O)*)c3ccc(=[N+](CC)CC)cc-3oc2c1
Readout: pKd
Please treat pKd as minus the base-10 logarithm of the molar concentration.

Past entries and their recorded results:
RhodamineB-KIANFIPAELKLITKANAA [RPtag(small) Nd2, p5a, e18a, v20a, q21a]    9.80
RhodamineB-GEKIPNFIPAALKLITKENVQ [RPtag(small) e11a]    9.10
RhodamineB-FIPAELKLITK [RPtag(small) Nd6, Cd4]    8.00
RhodamineB-GEKIPNFIPAELKLITAENVQ [RPtag(small) k17a]    9.27
RhodamineB-IANFIPAELKLITKANVQ [RPtag(small) Nd3, p5a, e18a]    9.20
RhodamineB-AIANFIPAELKLITKENVQ [RPtag(small) Nd2, k3a, p5a]    9.26

# input for lookup
IN: Please look up its pKd: RhodamineB-KIANFIPAELKLITK [RPtag(small) Nd2, Cd4, p5a]
OUT: 9.09
